assayComment: in vivo
runConditions: mouse, mice, oral, 100 mg./ml. in 1% aqueous methylcellulose (100 cps), read-out: acute oral LD50
quantityKind: LD50
Answer with the number, then the unit.

# input # get_value(readout='LD50', item= CC(C)c1ccc(CCC(CCc2ccc(C(C)C)cc2)NCC(O)CN)cc1.Cl.Cl.O (stereo not shown) [cited dihydrochloride] )
# output 1300 mg/kg
